- experiment summary: Cmax in Sprague-Dawley rat at 2 mg/kg administered via oral gavage measured by LC-MS/MS method
- Assay type: ADME, organism-based
- Set-up: dose 2 mg/kg, route oral
- experimental setup: in vivo
reported property: Cmax (ng/mL)
Give a bare numeral; the unit ng/mL is implied.

Asked: Any idea what Cmax was measured for CCCN(CCC)CCCCOc1cc2oc3cc(OCCCCN(CCC)CCC)c(OC)c(CC=C(C)C)c3c(=O)c2c(O)c1CC=C(C)C ?
Given back: 320

====

- experiment summary: Half life in rat liver microsomes at 1 uM preincubated for 5 mins followed by NADPH addition measured by LC-MS/MS method
- Assay type: ADME
reported property: half-life at 1 µM

COc1c(OCCCCN2CCOCC2)cc2oc3cc(OCCCCN4CCOCC4)c(CC=C(C)C)c(O)c3c(=O)c2c1CC=C(C)C    > 30 min
CCN(CC)CCOc1cc2oc3cc(OCCN(CC)CC)c(OC)c(CC=C(C)C)c3c(=O)c2c(O)c1CC=C(C)C    12 min
CCN(CC)CCCCCCCOc1cc2oc3cc(OCCCCCCCN(CC)CC)c(OC)c(CC=C(C)C)c3c(=O)c2c(O)c1CC=C(C)C    > 30 min

Moving on to the next compound.
Asked: Record request: half-life at 1 µM value, item CCN(CC)CCCCOc1cc2oc3cc(OCCCCN(CC)CC)c(OC)c(CC=C(C)C)c3c(=O)c2c(OCCCCN(CC)CC)c1CC=C(C)C
Given back: > 30 min
